Each item that follows carries a reported ELISA_avg.
Molecular target: T1, recombinant human CD123-Fc (human, UniProt P26951 19-305)
T1 construct: not shown: Fc part of CD123-Fc
T1 sequence: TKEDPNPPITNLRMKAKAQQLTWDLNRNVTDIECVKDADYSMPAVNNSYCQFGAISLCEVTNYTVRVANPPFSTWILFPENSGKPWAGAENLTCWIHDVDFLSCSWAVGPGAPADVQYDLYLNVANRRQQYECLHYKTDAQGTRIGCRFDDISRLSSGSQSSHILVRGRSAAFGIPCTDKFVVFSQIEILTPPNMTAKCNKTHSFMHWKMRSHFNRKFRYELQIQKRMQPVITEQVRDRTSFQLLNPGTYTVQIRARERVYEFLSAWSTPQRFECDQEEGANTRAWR
Experiment: phage ELISA, captured CD123-Fc
# do not omit the unit; it follows the number

Reference set, count: 2
BINDER	ELISA_avg
SEQ ID NO: 512 (designed binder, D domain, on phage) MGSWWLFKEQLALIKYNLEALGGSEAELADFESWIAEFEHQLQEYKGKGNPEVEALRKEAAAIRDELQAYRHN	4.1 ratio A450 target/IgG1-Fc
SEQ ID NO: 531 (designed binder, D domain, on phage) MGSWTEFKGELAEIKWILEALGGSEAELAFFEDEIAAFEWDLQKYKGKGNPEVEALRKEAAAIRDELQAYRHN	8.2 ratio A450 target/IgG1-Fc

input: Requested read-out: ELISA_avg. Entry: SEQ ID NO: 379 (designed binder, D domain, on phage) MGSWFEFWDRLEAIWERLDALGGSEAELAAFEKEIAAFESELQAYKGKGNPEVEELRREAAIIREDLQAYRHN
output: 10.3 ratio A450 target/IgG1-Fc

input: Requested read-out: ELISA_avg. Entry: SEQ ID NO: 408 (designed binder, D domain, on phage) MGSWVEFYTRLDAIYGRLDALGGSEAELAAFEKEIAAFESELQAYKGKGNPEVEWLRQVAANIRMELQAYRHN
output: 14.4 ratio A450 target/IgG1-Fc

Data origin: patent US20230125550A1
